# Target Under Test: T1, B-cat-Halo (UniProt P35222 1-781, HaloTag NanoBRET 618 Ligand bound in the assay)
# T1 sequence (looked up): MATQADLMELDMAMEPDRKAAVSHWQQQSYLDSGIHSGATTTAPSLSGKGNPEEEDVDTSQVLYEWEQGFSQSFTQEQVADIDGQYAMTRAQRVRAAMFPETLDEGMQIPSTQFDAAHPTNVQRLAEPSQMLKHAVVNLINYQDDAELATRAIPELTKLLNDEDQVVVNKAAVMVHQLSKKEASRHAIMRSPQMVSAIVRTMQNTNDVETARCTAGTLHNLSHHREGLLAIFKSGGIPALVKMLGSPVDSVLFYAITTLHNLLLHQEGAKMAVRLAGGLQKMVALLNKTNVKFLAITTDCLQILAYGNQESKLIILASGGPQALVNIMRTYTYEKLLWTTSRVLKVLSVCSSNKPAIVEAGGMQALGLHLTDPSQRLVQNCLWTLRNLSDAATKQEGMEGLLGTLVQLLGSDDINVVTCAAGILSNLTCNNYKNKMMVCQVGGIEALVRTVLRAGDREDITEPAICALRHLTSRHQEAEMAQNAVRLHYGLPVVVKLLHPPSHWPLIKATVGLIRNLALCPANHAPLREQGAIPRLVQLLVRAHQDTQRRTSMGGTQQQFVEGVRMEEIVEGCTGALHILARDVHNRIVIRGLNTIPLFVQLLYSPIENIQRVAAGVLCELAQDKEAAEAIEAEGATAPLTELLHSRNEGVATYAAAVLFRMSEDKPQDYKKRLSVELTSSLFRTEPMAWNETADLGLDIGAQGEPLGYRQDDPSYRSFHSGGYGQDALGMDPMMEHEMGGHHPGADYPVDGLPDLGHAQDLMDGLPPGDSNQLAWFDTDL
# Measurement Notes: cell-based or functional assay
Starred links: 1 amine or outer side, 2 acyl side, 3 side chain; linkers in the order of their positions; H or OH if unused. Positions of bridges follow the written chain, without caps; N, C: chain ends. Non-standard residues stand in square brackets, D forms with d. Primed or numbered codes have the meaning given here. PyrS2″ = (S)-3-amino-1-((pent-4-en-1-yloxy)carbonyl)pyrrolidine-3-carboxylic acid (stapling residue), C=CCCCOC(=O)N1CC[C@@](N[*:1])(C(=O)[*:2])C1; B5(4) = 2,2-bis(4-pentenyl)glycine = 2-amino-2-(pent-4-en-1-yl)hept-6-enoic acid (stitching residue), C=CCCCC(CCCC=C)(N[*:1])C(=O)[*:2]; Phe(3-COOH) = N[C@@H](Cc1cccc(C(=O)O)c1)C(=O)O; 2F3MeF = Cc1cccc(C[C@H](N[*:1])C(=O)[*:2])c1F; AcLys = CC(=O)NCCCC[C@H](N[*:1])C(=O)[*:2]; Bta = N[C@@H](Cc1csc2ccccc12)C(=O)O; αAllylPro = C=CC[C@@]1(C(=O)O)CCCN1; tBuAla = CC(C)(C)C[C@H](N)C(=O)O
# NanoBRET Abs IC50 per record follows
Give the number; µM is assumed, so skip it.

1) Ac-[αAllylPro]D[tBuAla][B5(4)]D[Phe(3-COOH)]AAF[AcLys][PyrS2″][2F3MeF][Bta][Me2Gln]-NH2 (staple 1-4, 4-11; not fully specified; printed as Ac-PL3-Asp-Npg-B5-Asp-3COOHF-Ala-Ala-Phe-AcLys-PyrS2-2F3MeF-BztA-Me2Gln-NH2) [I-2539] ... 3.6

Consider the record given below.
Fill blank: measured NanoBRET Abs IC50 of the binder Ac-[αAllylPro]D[tBuAla][B5(4)]D[Phe(3-COOH)]AAF[MorphGln][PyrS2″][2F3MeF][Bta][MorphGln]-NH2 (staple 1-4, 4-11; not fully specified; printed as Ac-PL3-Asp-Npg-B5-Asp-3COOHF-Ala-Ala-Phe-MorphGln-PyrS2-2F3MeF-BztA-MorphGln-NH2) [I-2546] is ____.
3.5

Sourced from patent US20240116985A1
